The values you see were collected from patent US11084790B2.

test: Test on the solubility in a simulated body fluid; assay type: physicochemical; details: 0.01 M PBS pH 7.4, 37° C., 15 min
quantity: Compound concentration: DTTA (µM)
I only need the number, in µM, no unit after it.

Answered cases to consult:
- CCCCN1CCCCC1C(=O)Nc1c(C)cccc1C.Cc1ccc(C(=O)OC(C(=O)O)C(OC(=O)c2ccc(C)cc2)C(=O)O)cc1 (stereo not shown) [Preparation Example 3, mono(bupivacaine) di-p-toluoyl tartarate]: 7244.6
- CCCN1CCCC[C@H]1C(=O)Nc1c(C)cccc1C.Cc1ccc(C(=O)OC(C(=O)O)C(OC(=O)c2ccc(C)cc2)C(=O)O)cc1 (stereo not shown) [Preparation Example 5, mono(ropivacaine) di-p-toluoyl tartarate]: 6612.8
- CCCCN1CCCCC1C(=O)Nc1c(C)cccc1C.CCCCN1CCCCC1C(=O)Nc1c(C)cccc1C.Cc1ccc(C(=O)OC(C(=O)O)C(OC(=O)c2ccc(C)cc2)C(=O)O)cc1 (stereo not shown) [Preparation Example 4, bis(bupivacaine) di-p-toluoyl tartarate]: 5399.5

Lab note: next compound to report on.
Per the record, CCCN1CCCC[C@H]1C(=O)Nc1c(C)cccc1C.CCCN1CCCC[C@H]1C(=O)Nc1c(C)cccc1C.Cc1ccc(C(=O)OC(C(=O)O)C(OC(=O)c2ccc(C)cc2)C(=O)O)cc1 (stereo not shown) [Preparation Example 6, bis(ropivacaine) di-p-toluoyl tartarate] has Compound concentration: DTTA of 15017.3

====

assay: Test on the solubility in a simulated body fluid; format: physicochemical; settings: 0.01 M PBS pH 7.4, 37° C., 2 h
# reported Compound concentration: Pamoic acid; entries follow
All answers are understood in µM, so give the number only.

Past entries and their recorded results:
- CCCCN1CCCCC1C(=O)Nc1c(C)cccc1C.O=C(O)c1cc2ccccc2c(Cc2c(O)c(C(=O)O)cc3ccccc23)c1O [Preparation Example 10, mono(bupivacaine) pamoate]: 995.7
- CCCN1CCCC[C@H]1C(=O)Nc1c(C)cccc1C.O=C(O)c1cc2ccccc2c(Cc2c(O)c(C(=O)O)cc3ccccc23)c1O [Preparation Example 9, mono(ropivacaine) pamoate]: 1668.4
- CCCCN1CCCCC1C(=O)Nc1c(C)cccc1C.CCCCN1CCCCC1C(=O)Nc1c(C)cccc1C.O=C(O)c1cc2ccccc2c(Cc2c(O)c(C(=O)O)cc3ccccc23)c1O [Preparation Example 29, bis(bupivacaine) pamoate]: 140
- CCCCN1CCCCC1C(=O)Nc1c(C)cccc1C.CCCCN1CCCCC1C(=O)Nc1c(C)cccc1C.O=C(O)c1cc2ccccc2c(Cc2c(O)c(C(=O)O)cc3ccccc23)c1O [Preparation Example 12, bis(bupivacaine) pamoate]: 140
- CCCCN1CCCCC1C(=O)Nc1c(C)cccc1C.CCCCN1CCCCC1C(=O)Nc1c(C)cccc1C.O=C(O)c1cc2ccccc2c(Cc2c(O)c(C(=O)O)cc3ccccc23)c1O [Preparation Example 30, bis(bupivacaine) pamoate]: 130.8

Entry CCCCN1CCCCC1C(=O)Nc1c(C)cccc1C.CCCCN1CCCCC1C(=O)Nc1c(C)cccc1C.O=C(O)c1cc2ccccc2c(Cc2c(O)c(C(=O)O)cc3ccccc23)c1O [Preparation Example 15, bis(bupivacaine) pamoate] — recorded Compound concentration: Pamoic acid = 141.5

====

assay: Test on the solubility in a simulated body fluid; type: physicochemical; settings: 0.01 M PBS pH 7.4, 37° C., 5 min
Known Compound concentration: Bupivacaine of a selection of molecules
Report as a plain number; the unit µM is understood.

Known Compound concentration: Bupivacaine results, listed for orientation:
- CC1(C)C2CCC1(CS(=O)(=O)O)C(=O)C2.CCCCN1CCCCC1C(=O)Nc1c(C)cccc1C (stereo not drawn) [Preparation Example 8, bupivacaine camphorsulfonate]: 47678.3
- CCCCN1CCCCC1C(=O)Nc1c(C)cccc1C.O=P1(O)Oc2ccc3ccccc3c2-c2c(ccc3ccccc23)O1 [Preparation Example 7, bupivacaine binaphthol phosphate]: 263

// next entry
The molecule listed as CCCCN1CCCCC1C(=O)Nc1c(C)cccc1C.CCCCN1CCCCC1C(=O)Nc1c(C)cccc1C.Cc1ccc(C(=O)OC(C(=O)O)C(OC(=O)c2ccc(C)cc2)C(=O)O)cc1 (stereo not drawn) [Preparation Example 4, bis(bupivacaine) di-p-toluoyl tartarate] has a reported Compound concentration: Bupivacaine of 11389.4

====

Assay: Test on the solubility in a simulated body fluid
Format: physicochemical
Conditions: 0.01 M PBS pH 7.4, 37° C., 2 h
Experimental: Test on the Solubility in a Simulated Body Fluid The concentration of the drug dissolved in the PBS buffered solution was determined with an HPLC-a method.
The entries below come with measured Compound concentration: DTTA values attached.
Write the value in µM as a bare number.

CCCN1CCCC[C@H]1C(=O)Nc1c(C)cccc1C.CCCN1CCCC[C@H]1C(=O)Nc1c(C)cccc1C.Cc1ccc(C(=O)OC(C(=O)O)C(OC(=O)c2ccc(C)cc2)C(=O)O)cc1 (stereo not shown) [Preparation Example 6, bis(ropivacaine) di-p-toluoyl tartarate] has a reported Compound concentration: DTTA of 19679

====

test: Test on the solubility in a simulated body fluid; assay type: physicochemical; details: 0.01 M PBS pH 7.4, 37° C., 5 min
quantity: Compound concentration: DTTA (µM)
Output spec: scalar in µM, unitless text.

Example cases with answers are listed next.
- CCCN1CCCC[C@H]1C(=O)Nc1c(C)cccc1C.CCCN1CCCC[C@H]1C(=O)Nc1c(C)cccc1C.Cc1ccc(C(=O)OC(C(=O)O)C(OC(=O)c2ccc(C)cc2)C(=O)O)cc1 (stereo not shown) [Preparation Example 6, bis(ropivacaine) di-p-toluoyl tartarate]: 13380.8
- CCCN1CCCC[C@H]1C(=O)Nc1c(C)cccc1C.Cc1ccc(C(=O)OC(C(=O)O)C(OC(=O)c2ccc(C)cc2)C(=O)O)cc1 (stereo not shown) [Preparation Example 5, mono(ropivacaine) di-p-toluoyl tartarate]: 6676.8
- CCCCN1CCCCC1C(=O)Nc1c(C)cccc1C.CCCCN1CCCCC1C(=O)Nc1c(C)cccc1C.Cc1ccc(C(=O)OC(C(=O)O)C(OC(=O)c2ccc(C)cc2)C(=O)O)cc1 (stereo not shown) [Preparation Example 4, bis(bupivacaine) di-p-toluoyl tartarate]: 5161

Let us move to another entry and its Compound concentration: DTTA.
Entry CCCCN1CCCCC1C(=O)Nc1c(C)cccc1C.Cc1ccc(C(=O)OC(C(=O)O)C(OC(=O)c2ccc(C)cc2)C(=O)O)cc1 (stereo not shown) [Preparation Example 3, mono(bupivacaine) di-p-toluoyl tartarate] — recorded Compound concentration: DTTA = 7316.3

====

test: Test on the solubility in a simulated body fluid; assay type: physicochemical; conditions: 0.01 M PBS pH 7.4, 37° C., 2 h
In this section we review reported Compound concentration: DTTA values for a set of molecules.

Before answering, review these 2 worked examples.
* CCCN1CCCC[C@H]1C(=O)Nc1c(C)cccc1C.Cc1ccc(C(=O)OC(C(=O)O)C(OC(=O)c2ccc(C)cc2)C(=O)O)cc1 (stereo not drawn) [Preparation Example 5, mono(ropivacaine) di-p-toluoyl tartarate] | 6988 µM
* CCCCN1CCCCC1C(=O)Nc1c(C)cccc1C.CCCCN1CCCCC1C(=O)Nc1c(C)cccc1C.Cc1ccc(C(=O)OC(C(=O)O)C(OC(=O)c2ccc(C)cc2)C(=O)O)cc1 (stereo not drawn) [Preparation Example 4, bis(bupivacaine) di-p-toluoyl tartarate] | 5068.3 µM

Next molecule, Compound concentration: DTTA to be filled in.
Lookup result for CCCCN1CCCCC1C(=O)Nc1c(C)cccc1C.Cc1ccc(C(=O)OC(C(=O)O)C(OC(=O)c2ccc(C)cc2)C(=O)O)cc1 (stereo not drawn) [Preparation Example 3, mono(bupivacaine) di-p-toluoyl tartarate] ; measured Compound concentration: DTTA: 7048.1 µM
